# Tested on: KM12 colon
# experiment_notes: NCI tumour cell line growth inhibition, 48 h
observation_type: TGI

Guide cases for TGI, answers given:
Input: Quick check: TGI of CSc1ccc(C(=O)/C=C/c2ccc(F)cc2)cc1 ?
Output: > 100 µM

Input: Tell me the measured TGI of Cc1cc(NS(=O)(=O)c2ccc(NC(=O)c3cccc4c(NNc5ccc(S(N)(=O)=O)cc5)c5ccccc5nc34)cc2)no1 , please.
Output: > 100 µM

Input: For the compound shown here, CCC(C)c1cnc(CC(C)C)c(=O)[nH]1 (centres undefined) , give the reported TGI.
Output: > 100 µM

Input: Would you mind telling me what TGI value was observed for N#CCCCCC12C3C(=O)N(c4ccccc4)C(=O)C3ON1O[C@@H]1C(=O)N(c3ccccc3)C(=O)[C@@H]12 (some centres undefined) ?
Output: > 100 µM

Input: What measured TGI goes with CNC(=O)C(NC(=O)[C@H](CC(C)C)NC(=O)[C@@H](S)CCN1C(=O)N(C)C(C)(C)C1=O)C(C)(C)C (some centres undefined) ?
Output: > 100 µM

Consider the following items and state reported TGI for each.
1. CN(c1ccccc1Cl)S(=O)(=O)c1ccccc1
2. Cn1c(=O)c2[nH]cnc2n(CC(=O)O)c1=O

Output:
["> 100 µM", "> 100 µM"]

Report TGI for each item below.
1. CC(=O)[CH-]C(=O)c1ccccc1.CC(=O)[CH-]C(=O)c1ccccc1.CC12CC3(C)CC(C)(C1)CC([O-])(C2)C3.CC[O-].[Ti+4]
2. O=C(O)CCc1nc(-c2ccccc2)c(-c2ccccc2)o1
3. CCN1CCN(c2nc(C)cc(N(CCCNc3ccnc4cc(Cl)ccc34)Cc3ccco3)n2)CC1
4. CCOC(=O)c1[nH]n(-c2ccccc2)c(=O)c1C=NC(=S)C(N)=S
5. COc1cc(C2c3cc4c(cc3OC(N3CCOCC3)C2C)OCO4)cc(OC)c1OC (centres undefined)
6. COC(=O)C[C@](O)(CCC(C)(C)O)C(=O)O[C@@H]1C(OC)=C[C@]23CCCN2CCc2cc4c(cc2[C@H]13)OCO4
7. OC(C1CCCC1=N/N=C1/CCCC1C(O)(C(F)(F)Cl)C(F)(F)Cl)(C(F)(F)Cl)C(F)(F)Cl (centres undefined)

Output:
35.2 µM
> 100 µM
19.4 µM
> 100 µM
14 µM
1.21 µM
> 10 µM

* * *

# Tested on: SK-MEL-5 melanoma
# experiment_notes: NCI tumour cell line growth inhibition, 48 h
observation_type: TGI

Input: // TGI lookup, key: O=C(O)[C@H]1NC[C@@H]2ON=C(Br)[C@@H]21
Output: > 100 µM

Input: Name the reported TGI value associated with the molecule CC(Nc1cc(=O)n(C)c(=O)[nH]1)c1ccccc1 (stereo unspecified)
Output: > 100 µM

Input: What value of TGI has been reported for the following molecule? C/C=C/COc1cc(NC(=S)c2ccoc2C)ccc1OC
Output: > 100 µM

Input: Consider the molecule shown here: C[N+](C)(N)Cc1csc(-c2ccc(Cl)cc2)n1 What is its recorded TGI?
Output: > 100 µM

Input: Item CN(C)C(=S)/N=c1\ssc(=S)n1Cc1ccccn1 has what recorded TGI?
Output: > 54.4 µM

Now look at this entry.
Input: Which value of TGI has been reported for CC1(C)N=C(/C(C#N)=[N+](/[O-])C(=O)c2ccccc2)C(C)(C)N1O in the records?
Output: > 100 µM

* * *

I'd be grateful if you could share measured TGI for these entries.
# Test system: TK-10 renal
# experiment_notes: NCI tumour cell line growth inhibition, 48 h
Where a SMILES comes first, the peptide text is derived from it. Side-chain parts run from the residue outwards. The star is where a group is joined. Cbz = O=C(OCc1ccccc1)*; Boc = CC(C)(C)OC(=O)*

Please state, for each entry, its recorded TGI.
1. COC(=O)C1CCC(N2C(=O)CCC2C(=O)OC)=N1 (centres undefined)
2. COc1cc(OC)c(NC2=NCCO2)cc1Cl
3. CN(c1ccccc1Cl)S(=O)(=O)c1ccccc1
4. CC1(C)N=C(/C(C#N)=[N+](/[O-])C(=O)c2ccccc2)C(C)(C)N1O
5. C[n+]1c(-c2ccc(/C=N/Nc3n[nH]c(=S)n3N/N=C/c3ccc(-c4cn5ccccc5[n+]4C)cc3)cc2)cn2ccccc21
6. O=C(O)c1ccc(/C=N\N(CCO)C2=NCCN2)cc1
7. Nc1nc(SCc2ccccc2[N+](=O)[O-])c2[nH]cnc2n1

Output:
1: > 100 µM; 2: > 100 µM; 3: > 100 µM; 4: > 100 µM; 5: > 100 µM; 6: > 100 µM; 7: > 62.7 µM

Can you give me TGI for all of these, one by one?
1. C=CC1=C(C)C(Cc2[nH]c(/C=c3\[nH]/c(=C/C4=NC(=O)C(C)/C4=C\C)c(C)c3CCC(=O)O)c(CCC(=O)OC)c2C)NC1=O (centres undefined)
2. O=C(O)C1=C(Cl)c2ccccc2S1(=O)=O
3. Cn1c(=O)c2[nH]cnc2n(CC(=O)O)c1=O
4. O=C(O)C1Cc2ccccc2OC1=O (centres undefined)

Output:
1: > 100 µM; 2: > 100 µM; 3: > 100 µM; 4: > 100 µM

Respectfully, I request TGI for each entry included below.
1. CC(C)CC(NC(=O)OCc1ccccc1)C(=O)NCCCCC(NC(=O)C(CCCCNC(=O)C(CC(C)C)NC(=O)OCc1ccccc1)NC(=O)C(CCCCNC(=O)C(CC(C)C)NC(=O)OCc1ccccc1)NC(=O)C(CCCCNC(=O)C(CC(C)C)NC(=O)OCc1ccccc1)NC(=O)OC(C)(C)C)C(=O)O (centres undefined) (Boc-K([Leu-Cbz])K([Leu-Cbz])K([Leu-Cbz])K([Leu-Cbz])-OH; configuration not given here)
2. CC(=O)O[C@@H]1CC2[C@@H](CCC3Cc4nc5c(nc4C[C@@]32C)CC2CC[C@@H]3C(CC[C@@]4(C)C3CC[C@@H]4C(C)CCCC(C)C)[C@@]2(C)C5)C2C[C@@H]3OC4(CCC(C)CO4)C(C)[C@@H]3[C@]21C (some centres undefined)
3. CCOC(=S)SC/C(=N\OC(C)(C)OC)c1ccccc1
4. Cc1ccc(C(=O)/C=C/N2CCN(c3cccc(C(F)(F)F)c3)CC2)cc1
5. CN(C)Cc1cc(C(=O)/C=C/c2c(F)cccc2Cl)cc(CN(C)C)c1O
6. CC1=NN(c2cccc(Cl)c2)C2(C1)SCC(=O)N2c1nc2ccccc2s1 (centres undefined)

Output:
["> 25 µM", "> 100 µM", "> 100 µM", "56.8 µM", "15.7 µM", "74.1 µM"]

Answer for every listed entry: what is its TGI? The entries follow.
1. O=C1/C(=C/c2ccc(C(F)(F)F)cc2)COc2ccc(O)cc21
2. COc1ccc2c(c1)-c1c(c3ccccc3n1CCN1CCOCC1)CC2

Output:
14.3 µM
1.78 µM

* * *

# System: A498 renal
# experiment_notes: NCI tumour cell line growth inhibition, 48 h
observation_type: TGI

Input: Reported TGI for COC(=O)Nc1nc2ccc(NS(=O)(=O)c3ccc(F)cc3)cc2[nH]1 : what is it?
Output: > 100 µM

Input: Entry under review: CC(C)[C@H](O)C(=O)N[C@H]1Cc2ccc3c(c2)[C@]24C5=C(N=C(O5)[C@H](C(C)C)NC1=O)c1nc(Cl)c(o1)-c1c(Cl)[nH]c5cccc(c15)-c1cccc2c1N[C@H]4O3 . Reported TGI?
Output: > 10 µM

Input: Which TGI is listed for Cc1cccc2cc3ccc4ccccc4c3cc12 ?
Output: > 100 µM

Working through the 5 molecules below one at a time, give TGI for each.
1. CCOc1ccc(C(c2c(O)c3ccccc3oc2=O)c2c(O)c3ccccc3oc2=O)cc1
2. C/C(CC(=O)Nc1ccc(NC(=O)/C(C)=N/NS(=O)(=O)c2ccc(C)cc2)cc1)=N\NS(=O)(=O)c1ccc(C)cc1
3. O=C(Nc1ccc(Cl)cc1)c1cc(S(=O)(=O)NC2=NC(c3ccccc3)c3cc(Cl)ccc3N2)c(SSc2cc(Cl)c(C(=O)Nc3ccc(Cl)cc3)cc2S(=O)(=O)NC2=NC(c3ccccc3)c3cc(Cl)ccc3N2)cc1Cl (stereo not drawn)
4. COC(=O)C1(Cc2ccc3c(c2)CCC3)Cc2cc3c(cc2C1=O)CCC3 (stereo not drawn)
5. S=C1NC2=C(COC/C2=C\c2ccccc2Cl)C(c2ccccc2Cl)N1 (stereo not drawn)

Output:
1: > 100 µM; 2: > 100 µM; 3: > 100 µM; 4: > 31.6 µM; 5: > 100 µM

* * *

# Tested on: MDA-MB-435
# experiment_notes: NCI tumour cell line growth inhibition, 48 h
observation_type: GI50

Input: What GI50 value was documented for this compound, COc1cc2c(cc1-c1c(C)noc1C)ncc1[nH]c(=O)n([C@H](C)c3ccccn3)c12 ?
Output: 0.474 µM

Input: Find the recorded GI50 belonging to CN1CCN(c2ccc([N+](=O)[O-])c3no[n+]([O-])c23)CC1 and report it.
Output: 0.642 µM

Input: Any idea what GI50 was measured for Cc1ccc(C(=O)Nc2ccccc2C(=O)N/N=C(\c2ccccc2)c2ccccn2)cc1 ?
Output: 0.534 µM

Input: Name the reported GI50 value associated with the compound c1ccc([P+](CCC[P+](c2ccccc2)(c2ccccc2)c2ccccc2)(c2ccccc2)c2ccccc2)cc1
Output: 4.84 µM

Input: // GI50 lookup, key: C=C1C(=O)O[C@H]2[C@H]1CC/C(COC(=O)NCc1cccc(OC)c1)=C\CC[C@@]1(C)O[C@@H]21
Output: 1.5 µM

Next:
Input: Quick one: GI50 for O=C1C(Nc2cccc(O)c2)=C(Sc2ccc(Cl)cc2)C(=O)N1Cc1ccccc1 ?
Output: 6.43 µM
